Origin of the recorded values: ChEMBL document CHEMBL3988442

Assignment: determine reported Percent Effect for the given compounds.
Biological target: Protein translocase subunit SecA (Escherichia coli (strain K12))
Assay: Assay to Identify E. coli SecA ATPase Inhibitors
Format: functional
Set-up: scale not given: direction of the effect not stated beside the values
Conditions: 30 µM
Results with a measured potency or affinity are listed apart.
One number for each entry, in %.

Examples with their reported Percent Effect follow.
compound: CCn1cnnc1C1CCN(C(=O)c2ccc(Cl)s2)CC1
Percent Effect [%]: -3.49
--
compound: CCOCC1CN(Cc2cccc(C#N)c2)Cc2nccn2C1 (stereo unspecified)
Percent Effect [%]: -3.99
--
compound: CC(C)(C)c1ncc2c(n1)CN(C(=O)c1ccncc1)C2
Percent Effect [%]: -2.88

Field: Percent Effect. Fill in for each record below.
1. Cc1noc([C@@H]2CC[C@@H]3[C@@H](CCN3S(=O)(=O)C3CC3)O2)n1
2. CC(C)OCc1ncn2c1CN(Cc1ccc(F)cc1)CCC2
3. COCCNc1nc2c(c(NCc3ccncc3)n1)CCNCC2
4. O=C(NCc1ccco1)[C@H]1C[C@H]2OCC[C@H]2N(S(=O)(=O)C2CC2)C1
5. Cn1c(Cn2cccn2)nnc1C1CCCN(c2ccncc2)C1 (stereo unspecified)

Result string:
1. 0.234
2. -4.79
3. 1.06
4. -3.9
5. -2.64

###

Assign Percent Effect to each entry below.
Target: Tyrosyl-tRNA synthetase, putative (Trypanosoma cruzi (strain CL Brener))
Test: Trypanosoma cruzi tyrosyl tRNA synthetase (TcYRS) SOP
Type: functional
Set-up: scale not given: direction of the effect not stated beside the values
Settings: 30 µM
Answers are plain numbers, in %.

Worked set:
compound: Cc1nc(CN2CCN(C(=O)c3ccn(C)c(=O)c3)CC2)cs1
measurement-kind: Percent Effect
experimental-result: 15.2
//
compound: Cn1ccnc1CN1CCN(CC(=O)NCC(F)(F)F)CC1
measurement-kind: Percent Effect
experimental-result: 6.17
//
compound: CCC1CN(CC(=O)N2CCC2)CCN1CCOC (stereo not given)
measurement-kind: Percent Effect
experimental-result: 28.4
//
compound: CCN(CC)c1ccc(-c2nc(-c3cccc(OC)c3OC)no2)cn1
measurement-kind: Percent Effect
experimental-result: -8.64
//
compound: CS(=O)(=O)c1ccc(CNCC2CCN(CCO)CC2)cc1
measurement-kind: Percent Effect
experimental-result: -5

Hello, I would appreciate it if you could give Percent Effect for each entry below.
1. Cc1cccc2c1cnn2CCC(=O)NCC(=O)N(C)C
2. COc1ccc(CN2CCCC(Cn3nc(C)nc3C)C2)cc1F (stereo not given)
3. Cc1nc(CN2CCCN(C(=O)c3ccccn3)CC2)oc1C
4. O=C(CN1CCC(c2ccnn2CCO)CC1)NCc1cccs1
5. Cc1csc(C2CCCN(C(=O)c3cnc[nH]3)C2)n1 (stereo not given)
6. CCn1ncc2c1CCCC2NCc1cc(Cl)c(OC)c(OC)c1 (stereo not given)

Result string:
7.69
2.53
11.8
24.1
18.5
21.5

Would you mind listing Percent Effect for each of the following compounds?
1. O=C(NCCNc1ccc(C(F)(F)F)cn1)c1cncc(Br)c1
2. CCCC(=O)N1CCC(O)(Cn2c(CC)nc3ccccc3c2=O)CC1
3. Cn1ccc(C(=O)N2CCC(Cc3cccc4cccnc34)C2)n1 (stereo not given)
4. Cc1ncsc1CN1CC[C@H]2OCC[C@@]2(C(=O)NC(C)C)C1
5. Cc1cnn(CCC(=O)N2CCCC(c3cc(C(N)=O)[nH]n3)C2)c1 (stereo not given)
6. CCc1nc(C2CCCN2CC(=O)Nc2c(C)nn(C)c2C)no1 (stereo not given)
7. Cc1cc2c(cc1C)C(NCc1nnc3n1CCCCC3)CCCO2 (stereo not given)

Result string:
1: 30.6; 2: 3.9; 3: 6.49; 4: -8.97; 5: 11.1; 6: 2.5; 7: 6.17

Working through the 5 compounds below one at a time, give Percent Effect for each.
1. COc1ccc(CNC(=O)CNc2cc3c(cc2Cl)OCCCO3)cc1
2. Fc1ccc(-c2nnc(CN3CCOC(Cn4cncn4)C3)o2)cc1 (stereo not given)
3. Cc1nc2ccnn2c(C)c1CCC(=O)N1CCC(C(N)=O)CC1
4. CN(Cc1nnc(-c2ccco2)o1)CC1CCCN1c1cccnn1 (stereo not given)
5. COc1cccc(COCC(=O)N2CCCC(c3nncn3C)C2)c1 (stereo not given)

Result string:
1. 1.24
2. -14.6
3. 1.24
4. 9.41
5. 16.1

Give one value of Percent Effect per listed compound.
1. CCc1noc(C(C)N2CCC(NC(=O)c3ccc(C)s3)CC2)n1 (stereo not given)
2. C[S+]([O-])c1nncn1CC(=O)c1cccc(Cl)c1 (stereo not given)
3. CCc1nc(NS(=O)(=O)c2cc(C)ccc2F)no1
4. CCn1cnnc1CNC(=O)N1CCN(c2cccc(OC)c2)CC1

Result string:
1: 11.1; 2: 8.64; 3: 6.17; 4: 14.6

###

Species: Homo sapiens
Test: To identify inhibition of the IFN signalling (Jak-Stat) pathway via expression of an eGFP reporter gene under the control of an IFN-stimulated response element (ISRE) containing MxA promoter.
Type: functional
Set-up: scale not given: direction of the effect not stated beside the values
Conditions: 30 µM
I'd appreciate it if you could supply Percent Effect values for the items below.
Please state the value followed by its unit.

As a guide, the following entries are already answered.
compound: Cc1ccccc1C1(CNC(=O)NCCc2nnc3n2CCC3)CC1
Percent Effect: -19.3%
//
compound: Cn1ccc(CN2CCC(Oc3ccccc3)CC2)cc1=O
Percent Effect: -2.92%
//
compound: O=C(CCc1nccs1)N1CCC(N2CCNC2=O)CC1
Percent Effect: 12.7%
//
compound: COCCO[C@H]1CCN(Cc2cccs2)[C@H]1Cc1cccnc1
Percent Effect: 0.814%

# return Percent Effect for each item in the list
1. CC(c1ccc(Cl)cc1)N1CCN(CCNS(C)(=O)=O)CC1 (stereo unspecified)
2. COc1cccc(N2CCN(Cc3ccc(NC(C)=O)cc3)CC2=O)c1
3. O=C(CCc1cc2n(n1)CCCN(C(=O)c1ccccn1)C2)NC1CC1
4. COCCNC(=O)[C@H]1C[C@@H]2CCN(c3nncs3)C[C@H]2O1
5. COCC(=O)N1CC[C@@H]2CN(Cc3cccc(Cl)c3)S(=O)(=O)[C@@H]2CC1
6. C[C@@H]1CN(C(=O)c2ccc(C#N)nc2)CC[C@@]1(O)C1CCOCC1

Result string:
1: 4.77%; 2: 4.1%; 3: -15.2%; 4: 7%; 5: 5.42%; 6: 14.3%

Query string: For Cc1nc(C)n(CC2CCCCN2CCC(=O)Nc2cc(C)on2)n1 (stereo unspecified) , write its Percent Effect.
Result string: 5.13%

###

Biological target: Tyrosyl-tRNA synthetase, putative (Trypanosoma cruzi (strain CL Brener)) (UniProt Q4DSP6)
Sequence (Q4DSP6 as listed by the source): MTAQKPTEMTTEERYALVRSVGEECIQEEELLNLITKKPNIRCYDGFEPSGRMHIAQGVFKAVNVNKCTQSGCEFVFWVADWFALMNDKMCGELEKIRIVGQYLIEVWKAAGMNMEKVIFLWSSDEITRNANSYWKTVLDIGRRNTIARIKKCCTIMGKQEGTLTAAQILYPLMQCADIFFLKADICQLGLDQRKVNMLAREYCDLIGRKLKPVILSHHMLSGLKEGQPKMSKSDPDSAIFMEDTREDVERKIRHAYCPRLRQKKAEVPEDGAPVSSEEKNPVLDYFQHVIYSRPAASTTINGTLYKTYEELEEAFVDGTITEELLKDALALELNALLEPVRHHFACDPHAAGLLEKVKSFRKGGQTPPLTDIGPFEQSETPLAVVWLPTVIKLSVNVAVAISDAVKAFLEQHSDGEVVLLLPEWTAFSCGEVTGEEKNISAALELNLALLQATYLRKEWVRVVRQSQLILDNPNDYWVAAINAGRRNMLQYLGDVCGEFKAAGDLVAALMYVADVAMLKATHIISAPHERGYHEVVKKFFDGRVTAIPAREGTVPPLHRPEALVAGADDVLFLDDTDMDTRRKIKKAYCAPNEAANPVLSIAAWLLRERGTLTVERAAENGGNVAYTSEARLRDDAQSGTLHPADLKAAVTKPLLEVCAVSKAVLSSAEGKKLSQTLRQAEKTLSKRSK
Experiment: Trypanosoma cruzi tyrosyl tRNA synthetase (TcYRS) _High Tyrosine SOP; further: in the data most compounds retested in dose-response had high values
Assay type: functional
Design: scale not given: direction of the effect not stated beside the values
Details: 30 µM
Can you tell me Percent Effect for the items I'm about to list?
Answers are plain numbers, in %.

// known answers, use as guide
molecule: CN1CCC(NC(=O)NCc2csc(Br)c2)CC1
readout-unit: %
experimental-result: 9.9
//
molecule: Cc1ccc(C(=O)N(C)Cc2cscn2)c(=O)[nH]1
readout-unit: %
experimental-result: 4.25
//
molecule: Cc1nccn1C1CCCN(C(=O)c2cc(O)nc3ccccc23)C1 (configuration not stated)
readout-unit: %
experimental-result: 6.4

Please give Percent Effect for each item listed below.
1. CC(C)c1noc(C(C)N2CCN(CCN3CCCC3=O)CC2)n1 (configuration not stated)
2. CCNC(=O)[C@@H]1C[C@H](NC(=O)c2cncnc2C)CN1CCCSC
3. CC(C)N(C)S(=O)(=O)N(C)Cc1ccc2c(c1)OCO2
4. COCCN1C(=O)C[C@H]2[C@H]1CCN2Cc1ccc(OC)cc1
5. CC(=O)Nc1nc(C(=O)N2CCCC2c2noc(C)n2)cs1 (configuration not stated)
6. Cn1cnnc1C1CCCN(C(=O)NCc2cc[nH]n2)C1 (configuration not stated)

Result string:
1: 1.48; 2: 4.17; 3: 5.83; 4: 3.19; 5: -1.94; 6: 6.4

###

Field: Percent Effect. Provide a value for each of the molecules that follow.
Molecular target: Ubiquitin-activating enzyme e1, putative (Leishmania donovani (strain BPK282A1)) (UniProt E9BSI1)
Sequence (E9BSI1 as listed by the source): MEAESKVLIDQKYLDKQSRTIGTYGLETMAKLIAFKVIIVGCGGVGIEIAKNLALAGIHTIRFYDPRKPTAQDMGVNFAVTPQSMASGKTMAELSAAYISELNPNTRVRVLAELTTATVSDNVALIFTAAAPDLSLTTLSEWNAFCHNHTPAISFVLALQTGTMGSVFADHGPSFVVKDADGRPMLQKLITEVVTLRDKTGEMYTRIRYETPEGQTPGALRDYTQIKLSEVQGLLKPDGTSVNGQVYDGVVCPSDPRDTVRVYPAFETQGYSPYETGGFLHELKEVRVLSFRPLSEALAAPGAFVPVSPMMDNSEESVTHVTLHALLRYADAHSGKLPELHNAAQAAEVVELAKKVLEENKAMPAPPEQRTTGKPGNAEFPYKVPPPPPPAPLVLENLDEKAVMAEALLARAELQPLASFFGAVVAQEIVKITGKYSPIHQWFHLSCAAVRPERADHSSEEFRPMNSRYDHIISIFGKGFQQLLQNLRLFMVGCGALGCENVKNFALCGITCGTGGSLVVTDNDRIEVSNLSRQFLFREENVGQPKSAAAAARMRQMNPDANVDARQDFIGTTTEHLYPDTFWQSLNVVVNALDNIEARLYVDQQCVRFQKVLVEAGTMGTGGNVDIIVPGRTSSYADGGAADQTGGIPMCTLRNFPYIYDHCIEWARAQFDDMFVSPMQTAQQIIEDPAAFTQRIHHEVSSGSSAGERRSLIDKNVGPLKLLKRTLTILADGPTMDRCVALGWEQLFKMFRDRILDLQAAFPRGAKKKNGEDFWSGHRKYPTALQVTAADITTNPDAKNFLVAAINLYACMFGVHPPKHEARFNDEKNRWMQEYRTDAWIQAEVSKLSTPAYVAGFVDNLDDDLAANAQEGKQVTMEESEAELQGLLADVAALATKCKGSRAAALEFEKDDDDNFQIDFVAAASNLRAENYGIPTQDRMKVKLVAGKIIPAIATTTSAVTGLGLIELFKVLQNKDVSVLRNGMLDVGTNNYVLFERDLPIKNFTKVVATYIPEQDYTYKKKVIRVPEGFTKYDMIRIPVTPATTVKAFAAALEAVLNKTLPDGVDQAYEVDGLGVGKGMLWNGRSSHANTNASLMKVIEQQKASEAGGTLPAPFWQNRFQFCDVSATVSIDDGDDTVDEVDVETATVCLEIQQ
Experiment: Leishmania donovani Ubiquitin Activating Enzyme (LdE1)
Assay type: functional
Set-up: scale not given: direction of the effect not stated beside the values
Details: 30 µM
Entries with a potency or affinity are not part of this list.
Numbers only, in %.

Example entries begin here.
molecule: CNc1cc(N2CCCC2CNCc2ccccn2)ncn1 (centres undefined)
experimental-result: 13.5
--
molecule: CC(=O)Nc1ncc(S(=O)(=O)Nc2ccc(F)cc2)s1
experimental-result: 17.3
--
molecule: Cc1nccc(C(=O)N2CCCN(Cc3cnn(C(C)C)c3)CC2)n1
experimental-result: -8.11
--
molecule: CC1CCN(Cc2cnc(S(=O)(=O)CC3CC3)n2CC2CCCO2)CC1 (centres undefined)
experimental-result: -4.17
--
molecule: COC(=O)CS(=O)(=O)CCC(=O)N1CCCC1c1ccsc1 (centres undefined)
experimental-result: 6.94
--
molecule: O=C(CCc1c[nH]cn1)N1CC[C@@H](c2ccc3ccccc3c2)[C@H](O)C1
experimental-result: 10.7

Give me Percent Effect for each of these molecules, listed below.
1. NS(=O)(=O)CCNC(=O)c1nnn(-c2ccc(F)cc2)c1C1CC1
2. NC(=O)C1CCN(C(=O)NCc2ccccc2Cn2cncn2)CC1
3. O=C(N1CCCCC1)N1CCN(CC(O)c2ccc(F)cc2)CC1 (centres undefined)
4. COc1cc(OC)c(C2Nc3cc(Cl)ccc3C3=NCCN32)cc1OC (centres undefined)
5. OCc1ccc(Cl)c(NCc2cccnc2)c1

Result string:
1: 8.11; 2: 5.41; 3: 13.2; 4: -8; 5: 0

For each listed entry, give its Percent Effect.
1. Cc1ccsc1CNC(=O)NC1CCCc2c1cnn2CCO (centres undefined)
2. CN(C)C(=O)CN1C[C@@H]2CC[C@H](C1)N(Cc1cc(F)ccc1F)C2
3. CCCn1nc2c(cc1=O)CN(CCS(C)(=O)=O)CC2

Result string:
1: 2.67; 2: 5.48; 3: -5.41
